- target: His6‐FraB (Salmonella FraB deglycase) (Salmonella enterica subsp. enterica serovar Typhimurium)
- assay_protocol: FraB-G6PD coupled assay, Michaelis–Menten analysis for K I and mode of inhibition
- Assay type: biochemical
- study_conditions: IC50 (IC50 versus [S]/Km plots), Trial 1; 6-P-F-Asp 1000 µM, S/Km 23.80952; unit from Fig. S11 axis
property: pIC50
Please express pIC50 as -log10 of the molar concentration.

input: Returns the measured pIC50 for the input compound. Input: Fc1ccc(-c2nn3c(-c4ccccn4)nnc3s2)cc1 [3469:N17]
output: 4.49

====

- target: His6‐FraB (Salmonella FraB deglycase) (Salmonella enterica subsp. enterica serovar Typhimurium, UniProt Q8ZLD0)
- Sequence (Q8ZLD0 entry or part of it): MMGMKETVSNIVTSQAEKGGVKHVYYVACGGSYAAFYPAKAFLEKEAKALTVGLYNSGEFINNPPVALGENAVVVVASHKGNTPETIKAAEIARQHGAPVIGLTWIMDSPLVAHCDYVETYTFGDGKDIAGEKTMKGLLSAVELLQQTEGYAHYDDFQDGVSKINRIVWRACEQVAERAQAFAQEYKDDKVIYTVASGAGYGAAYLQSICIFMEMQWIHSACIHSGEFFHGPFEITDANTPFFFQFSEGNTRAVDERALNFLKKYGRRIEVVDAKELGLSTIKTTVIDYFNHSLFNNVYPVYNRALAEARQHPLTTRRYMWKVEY
- assay_protocol: FraB-G6PD coupled assay, Michaelis–Menten analysis for K I and mode of inhibition
- Format: biochemical
- study_conditions: Trial 1; 6-P-F-Asp 15.7 µM, S/Km 0.37381; unit from Fig. S11 axis; read-out: IC50 (IC50 versus [S]/Km plots)
Please go through the items and note down their log10(IC50).
Please note: log10 values; quantity IC50; unit µM.

input: log10(IC50) lookup needed for c1ccc(-c2nnc3sc(C4COc5ccccc5O4)nn23)nc1 (centres unmarked) , thanks.
output: 1.44

input: State the recorded log10(IC50) for this entry: `O=c1[nH][nH]c(=S)n1Cc1ccccc1`
output: 1.38

input: # input molecule: `CC(C)Cc1cc(-c2nn3c(-c4ccccc4Cl)nnc3s2)n[nH]1` ; wanted: its log10(IC50)
output: 1.47

input: # lookup: log10(IC50) of `O=c1sn(-c2ccccc2C(F)(F)F)c(=O)n1CC1CC1`
output: 0.14

input: Look at this molecule and give its reported log10(IC50). `Cc1cccc(Cl)c1-n1sc(=O)n(CC2CC2)c1=O`
output: 0.65

====

- target: His6‐FraB (Salmonella FraB deglycase) (Salmonella enterica subsp. enterica serovar Typhimurium)
- assay_protocol: FraB-G6PD coupled assay, Michaelis–Menten analysis for K I and mode of inhibition
- Assay type: biochemical
- study_conditions: trial shown in Fig. S11 panels M-X; read-out: KI from α′ vs [I] plot
property: pKi
Worth noting: pKi values are minus log10 of concentrations stated in mol/L.

input: Can you look up the measured pKi of c1ccc(-c2nnc3sc(C4COc5ccccc5O4)nn23)nc1 (stereo not shown) for me?
output: 4.60

====

- target: His6‐FraB (Salmonella FraB deglycase) (Salmonella enterica subsp. enterica serovar Typhimurium)
- assay_protocol: FraB-G6PD coupled assay, Michaelis–Menten analysis for K I and mode of inhibition
- Type: biochemical
- study_conditions: 'this trend' = IC50 does not vary with [S]/K m; change evident only from 0.2 to 1.6× [S]/K m
property: change of IC50 values with increasing [S]/K m

# example entries with known answers
1. CC(C)Cc1cc(-c2nn3c(-c4ccccc4Cl)nnc3s2)n[nH]1 [3470:A09] : modest decrease
2. Fc1ccc(-c2nn3c(-c4ccccn4)nnc3s2)cc1 [3469:N17] : modest decrease
3. O=c1[nH][nH]c(=S)n1Cc1ccccc1 [1533:K12] : modest decrease
4. Cc1cccc(Cl)c1-n1sc(=O)n(CC2CC2)c1=O [1524:E12] : exhibit this trend

input: Bench note: what change of IC50 values with increasing [S]/K m did O=c1sn(-c2ccccc2C(F)(F)F)c(=O)n1CC1CC1 [1524:G12] show?
output: exhibit this trend
